# condition_info: in n-propanol, 298.15 K

[
  {
    "chemical_string": "CC(=O)Oc1ccccc1C(=O)O",
    "solubility (mole fraction)": 0.0473
  }
]

* * *

# condition_info: in ethyl acetate, 318.15 K

[
  {
    "chemical_string": "CC(=O)Oc1ccccc1C(=O)O",
    "solubility (mole fraction)": 0.0738
  }
]

* * *

# condition_info: in ethanol, 323.15 K

[
  {
    "chemical_string": "CC(=O)Oc1ccccc1C(=O)O",
    "solubility (mole fraction)": 0.141
  }
]

* * *

# condition_info: in n-propanol, 293.15 K
parameter: solubility (mole fraction)

[
  {
    "chemical_string": "CC(=O)Oc1ccccc1C(=O)O",
    "assay_value": 0.037
  }
]
